Please respond with reported normalized growth for every item in the list.
Assay: chemical genetic growth profiling, strain panel (AID 1159580);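 note: tested at 20 µM; growth read once vehicle control cultures reached saturation at 30 °C; 1 = growth at the plate median or of vehicle wells; lower values mean less growth of the strain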
Conditions: S. cerevisiae deletion strains, growth OD, locus YNL307C, strain MCK1 (second series), active compounds read low
Screen size: about 5,500 compounds; about 2,000 (36%) were called active. Another 18% or so got no clear call; they are omitted. This is one part of the list.
Note: the reply should be a number with no unit written.

Input: Return value of normalized growth for input `Nc1ccc(N2CCN(c3ccc(C(F)(F)F)cn3)CC2)nc1` , no commentary.
Output: 0.916

Input: Answer with reported normalized growth of `CN(NC(=S)Nc1cc(Cl)ccc1Cl)c1ccc(C(F)(F)F)cc1[N+](=O)[O-]`
Output: 0.932

Input: State, in one line, measured normalized growth of `COc1cc(OC)cc(/C(N)=N\O)c1`
Output: 0.951

Input: Look up and report measured normalized growth for this entry: `Cc1c(NCN2C(=O)CCC2=O)cc2c(c1[N+](=O)[O-])C(C)(C)CC2(C)C`
Output: 0.94

Input: Note down normalized growth recorded for `O=C(c1ccc(Cl)cc1)N1CCN(c2ccc(C(F)(F)F)cn2)CC1`
Output: 0.931

Input: Look up and report measured normalized growth for this entry: `Cc1oc(-c2ccc(Cl)cc2)cc1C(=O)N1CCN(c2ccc(C(F)(F)F)cn2)CC1`
Output: 0.944

* * *

Assay: chemical genetic growth profiling, strain panel (AID 1159580)
Conditions: S. cerevisiae deletion strains, growth OD, locus YKR091W, strain srl3, active compounds read low
About 2,000 (36%) of roughly 5,500 compounds were called active. About 18% were inconclusive and are not listed. Some of the results follow.
Provide the reported normalized growth of each item.
// no unit, no text: just the number

Input: Name the recorded normalized growth of the item `Cc1ncc([N+](=O)[O-])n1CCO` in your answer.
Output: 0.962

Input: State its normalized growth: `COc1ccc2[nH]cc(CCNC(C)=O)c2c1`
Output: 0.969

Input: Look up and state reported normalized growth for `COc1cc2ccc(=O)oc2c2ccoc12`
Output: 0.998

Input: Given CC(=O)O[C@@H]1CC2C(C)(C)[C@H](O)C[C@H](O)[C@]2(C)C2CC[C@@]3(C)C(=CC(=O)O[C@H]3c3ccoc3)[C@@]21C (some centres undefined) , respond with its normalized growth.
Output: 0.976

* * *

Test: chemical genetic growth profiling, strain panel (AID 1159580);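 note: tested at 20 µM; growth read once vehicle control cultures reached saturation at 30 °C; 1 = growth at the plate median or of vehicle wells; lower values mean less growth of the strain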
Conditions: S. cerevisiae deletion strains, growth OD, locus YLR262C, strain YPT6, active compounds read low
The whole screen tested about 5,500 compounds, of which about 2,000 (36%) were called active. Roughly 18% stayed inconclusive and do not appear here. The list shows a part of the results.
Readout: normalized growth
A bare number is all that is needed in reply.

Input: Identify measured normalized growth corresponding to `CC(=O)CSc1nsc(SCC(C)=O)c1C#N`
Output: 0.962

Input: Output measured normalized growth for this item: CCCC(=O)Nc1ncnc2c1ncn2C1O[C@@H]2COP(=O)(O)O[C@H]2[C@H]1OC(=O)CCC (some centres not stated)
Output: 1.04

Input: Consider the molecule `COc1cc(O)c(C)c(O)c1` . State its measured normalized growth.
Output: 1.05

Input: Return the recorded normalized growth value; entry: `COc1c(O)cc(O)cc1O`
Output: 1.08

Input: Supply recorded normalized growth for `CC(=O)N[C@@H](CC(=O)O)C(=O)O` here.
Output: 1.01

Input: Recall and state the measured normalized growth for `COc1ccc2c(=O)c(CC(=O)O)coc2c1` .
Output: 1.03

Input: Determine from records and report normalized growth for C[N+]1(C)C2CC[C@H]1CC(OC(=O)C(O)c1ccccc1)C2 (some centres not stated)
Output: 0.977

* * *

Assignment: determine reported normalized growth for the given compounds.
Assay: chemical genetic growth profiling, strain panel (AID 1159580);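 note: tested at 20 µM; growth read once vehicle control cultures reached saturation at 30 °C; 1 = growth at the plate median or of vehicle wells; lower values mean less growth of the strain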
Conditions: S. cerevisiae deletion strains, growth OD, locus YDR388W, active compounds read low
In all, about 5,500 compounds went through this assay and about 2,000 (36%) were called active. Another 18% or so got no clear call; they are omitted. The list shows a part of the results.
Answer with a bare number; do not write a unit.

Input: State its normalized growth: `CCCCC(=O)N(Cc1ccc(-c2ccccc2-c2nn[nH]n2)cc1)[C@H](C(=O)O)C(C)C`
Output: 0.989

Input: Answer with the recorded normalized growth for the compound listed here: `COc1ccc2ccc(=O)oc2c1CC=C(C)C`
Output: 0.89

Input: # return recorded normalized growth for entry `COc1cc2ccc(=O)oc2cc1O`
Output: 1

Input: Tell me normalized growth reported for `COc1cc2ccc(=O)oc2c(OC)c1OC`
Output: 1.02

Input: Return normalized growth (reported value) for this compound: `COc1c2occc2cc2ccc(=O)oc12`
Output: 0.985

Input: Return normalized growth (reported value) for this compound: `CC1(C)S[C@@H]2[C@H](NC(=O)COc3ccccc3)C(=O)N2[C@H]1C(=O)O`
Output: 1.02

Input: State its normalized growth: CSCCC(NC=O)C(=O)NC(CC(C)C)C(=O)NC(Cc1ccccc1)C(=O)O (stereo not drawn)
Output: 1

Input: Report normalized growth for `CCN(CC)CCNC(=O)COc1ccc(OC)cc1`
Output: 0.997

Input: Quick one: give measured normalized growth for `COc1cc2ccc(=O)oc2c(O)c1O`
Output: 1

Input: Item CCOc1nc2cccc(C(=O)OC(C)OC(=O)OC3CCCCC3)c2n1Cc1ccc(-c2ccccc2-c2nn[nH]n2)cc1 (stereo not drawn) : provide normalized growth
Output: 1

Input: Name the recorded normalized growth of the compound listed here: `O=c1ccc2cc(O[C@@H]3O[C@H](CO)[C@@H](O)[C@H](O)[C@H]3O)c(O)cc2o1`
Output: 0.986

Input: Provide measured normalized growth value, entry: `Cc1ncc([N+](=O)[O-])n1CCO`
Output: 0.997

Input: Return value of normalized growth for input `CCCc1nc(C(C)(C)O)c(C(=O)OCc2oc(=O)oc2C)n1Cc1ccc(-c2ccccc2-c2nn[nH]n2)cc1` , no commentary.
Output: 0.987

* * *

Can you tell me normalized growth for the items I'm about to list?
Experiment: chemical genetic growth profiling, strain panel (AID 1159580);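 note: tested at 20 µM; growth read once vehicle control cultures reached saturation at 30 °C; 1 = growth at the plate median or of vehicle wells; lower values mean less growth of the strain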
Settings: S. cerevisiae deletion strains, growth OD, locus YKL085W, strain MDH1 (second series), active compounds read low
The campaign covered roughly 5,500 compounds. About 2,000 (36%) were called active. Roughly 18% stayed inconclusive and do not appear here. Some of the results follow.

Input: Please report normalized growth for the following compound: `O=C(O)c1cc2cc(Cl)ccc2[nH]1`
Output: 1.02 (inactive)

Input: Output normalized growth of `O=c1n(CCCN2CCN(c3cccc(Cl)c3)CC2)nc2ccccn12`
Output: 0.992 (inactive)

Input: Indicate the recorded normalized growth value for this compound: CC(=O)OC1CCC23C(=O)OC45CCC(C6=CC(=O)OC6)C4(C)CCC2C5CCC3(O)C1 (centres undefined)
Output: 1 (inactive)

Input: Give normalized growth for `CCCc1nc(C(C)(C)O)c(C(=O)OCc2oc(=O)oc2C)n1Cc1ccc(-c2ccccc2-c2nn[nH]n2)cc1`
Output: 0.98 (inactive)

Input: Please report normalized growth for the following compound: `O=C(CCCN1CC=C(n2c(=O)[nH]c3ccccc32)CC1)c1ccc(F)cc1`
Output: 0.994 (inactive)

Input: State its normalized growth for this compound: CC(=O)OCC(=O)[C@@]1(O)CCC2C3CCC4=CC(=O)CC[C@]4(C)[C@@]3(F)[C@@H](O)C[C@@]21C (some centres undefined)
Output: 1.01 (inactive)

Input: Please report the measured normalized growth for O=C1OC(=O)C2C3CCC(O3)C12 (centres undefined)
Output: 1.01 (inactive)

Input: Give the reported normalized growth for this compound. `CCN(CC)CCNC(=O)COc1ccc(OC)cc1`
Output: 0.981 (inactive)

Input: Tell me measured normalized growth for `C[C@H]1C(=O)O[C@@H]2CCN3CC=C(COC(=O)[C@](C)(O)[C@]1(C)O)[C@H]23` please.
Output: 1.04 (inactive)

Input: Look up and state reported normalized growth for `CC1(C)S[C@@H]2[C@H](NC(=O)COc3ccccc3)C(=O)N2[C@H]1C(=O)O`
Output: 1.01 (inactive)

Input: Give a short answer stating reported normalized growth for `N#Cc1ccc2c(c1)N(CCCN1CCC(O)CC1)c1ccccc1S2` .
Output: 1.04 (inactive)

Input: Recall and state the measured normalized growth for CC(=O)O[C@@H]1CC2C(C)(C)C(=O)[C@@H]3O[C@@H]3[C@]2(C)C2CC[C@]3(C)C(=CC(=O)O[C@H]3c3ccoc3)[C@@]21C (some centres undefined) .
Output: 0.996 (inactive)

Input: Hello, please tell me recorded normalized growth for this one: `CCCCC/C=C\C/C=C\C/C=C\C/C=C\CCCC(=O)O`
Output: 0.958 (inactive)

Input: Using known records, supply normalized growth for CCOc1nc2cccc(C(=O)OC(C)OC(=O)OC3CCCCC3)c2n1Cc1ccc(-c2ccccc2-c2nn[nH]n2)cc1 (centres undefined)
Output: 0.994 (inactive)

Input: Name the recorded normalized growth of the compound listed here: `CN1CCN(CCCN2c3ccccc3Sc3ccc(Cl)cc32)CC1`
Output: 0.979 (inactive)

Input: Give recorded normalized growth. `CCCCC(=O)N(Cc1ccc(-c2ccccc2-c2nn[nH]n2)cc1)[C@H](C(=O)O)C(C)C`
Output: 0.959 (inactive)

Input: Please give measured normalized growth of the following entry: C/C=C(\C)C(=O)OC1[C@@H]2C=C3C4CC(=O)O[C@@H](c5ccoc5)[C@]4(C)CCC3[C@@](C)(C2=O)[C@@H](C(O)C(=O)OC)C1(C)C (some centres undefined)
Output: 0.996 (inactive)

Input: Please supply the value of reported normalized growth for the item `CC(C)=CCC1=C(O)c2ccccc2C(=O)C1=O`
Output: 0.884 (active)

Input: Indicate the recorded normalized growth value for this compound: `CC1(C)C[C@@H]2C(=O)CC[C@H]3O[C@]3(C)CC[C@H]21`
Output: 0.996 (inactive)

FYI, the data here is from PubChem BioAssay AID1159580.
